Target: T1, ZFP SBS#744 (synthetic)
T1 chain: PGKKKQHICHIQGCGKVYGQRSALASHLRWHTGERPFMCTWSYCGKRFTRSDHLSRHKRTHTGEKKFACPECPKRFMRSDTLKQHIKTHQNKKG
Assay: EMSA
Settings: tags: MBP fusion
quantity.measured: Kd (nM)
Quick reminder: number only, in nM, skip the unit.

Ask | Which Kd value belongs to ACGGGGTTAT (dsDNA) DNA 1: ACGGGGTTAT DNA 2: ATAACCCCGT ?
Reply | 8.33

Recorded values, source patent US20030068675.
